# Tested on: 485176-168-R4-J1-PDC complex spheroid growth;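 further: spheroids exposed to compounds for seven days before readout; luminescence viability expressed relative to DMSO vehicle wells set as 100%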
# test.details: Anticancer human tumor 485176-168-R4-J1-PDC patient-derived pancreatic adenocarcinoma cell line growth inhibition [RAS]
# experimental.context: second compound 0.00316 µM; first compound 3.16 µM; hits give low values
reported.property: viability, T/C (%)
The answer is to be given in %; state only the numeric part.

# compound, readout.number
records = [
    ("NC1c2ccccc2OC12CCN(c1cnc3c(N4CCCc5ncccc54)n[nH]c3n1)CC2 (centres undefined) + C=CC(=O)N1CCN(c2nc(OCC3CCCN3C)nc3c(F)c(-c4nc(N)cc(C)c4C(F)(F)F)c(Cl)cc23)C(C)C1", 77.2),
    ("CC(=O)OC12COC1CC(O)C1(C)C(=O)C(O)C3=C(C)C(OC(=O)C(O)C(NC(=O)OC(C)(C)C)c4ccccc4)CC(O)(C(OC(=O)c4ccccc4)C21)C3(C)C (centres undefined) + C=CC(=O)N1CCN(c2nc(OCC3CCCN3C)nc3c(F)c(-c4nc(N)cc(C)c4C(F)(F)F)c(Cl)cc23)C(C)C1", 15.8),
]

// fetch viability, T/C; item: CC(Nc1ccc2c(c1)OCCn1cc(N3C(=O)OCC3C(F)F)nc1-2)C(N)=O (centres undefined) + C=CC(=O)N1CCN(c2nc(OCC3CCCN3C)nc3c(F)c(-c4nc(N)cc(C)c4C(F)(F)F)c(Cl)cc23)C(C)C1 ; system: 485176-168-R4-J1-PDC complex spheroid growth;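 further: spheroids exposed to compounds for seven days before readout; luminescence viability expressed relative to DMSO vehicle wells set as 100%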
58.1

// fetch viability, T/C; item: C[C@@H](NC(=O)c1ncnc(N)c1Cl)c1ncc(C(=O)Nc2cc(C(F)(F)F)c(Cl)cn2)s1 + C=CC(=O)N1CCN(c2nc(OCC3CCCN3C)nc3c(F)c(-c4nc(N)cc(C)c4C(F)(F)F)c(Cl)cc23)C(C)C1 ; system: 485176-168-R4-J1-PDC complex spheroid growth;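 further: spheroids exposed to compounds for seven days before readout; luminescence viability expressed relative to DMSO vehicle wells set as 100%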
84.7
